- measurement.target: furin, P09958;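 note: purified furin at 1:10 enzyme:substrate in 50 mM HEPES pH 7.5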
- Sequence (P09958 whole entry): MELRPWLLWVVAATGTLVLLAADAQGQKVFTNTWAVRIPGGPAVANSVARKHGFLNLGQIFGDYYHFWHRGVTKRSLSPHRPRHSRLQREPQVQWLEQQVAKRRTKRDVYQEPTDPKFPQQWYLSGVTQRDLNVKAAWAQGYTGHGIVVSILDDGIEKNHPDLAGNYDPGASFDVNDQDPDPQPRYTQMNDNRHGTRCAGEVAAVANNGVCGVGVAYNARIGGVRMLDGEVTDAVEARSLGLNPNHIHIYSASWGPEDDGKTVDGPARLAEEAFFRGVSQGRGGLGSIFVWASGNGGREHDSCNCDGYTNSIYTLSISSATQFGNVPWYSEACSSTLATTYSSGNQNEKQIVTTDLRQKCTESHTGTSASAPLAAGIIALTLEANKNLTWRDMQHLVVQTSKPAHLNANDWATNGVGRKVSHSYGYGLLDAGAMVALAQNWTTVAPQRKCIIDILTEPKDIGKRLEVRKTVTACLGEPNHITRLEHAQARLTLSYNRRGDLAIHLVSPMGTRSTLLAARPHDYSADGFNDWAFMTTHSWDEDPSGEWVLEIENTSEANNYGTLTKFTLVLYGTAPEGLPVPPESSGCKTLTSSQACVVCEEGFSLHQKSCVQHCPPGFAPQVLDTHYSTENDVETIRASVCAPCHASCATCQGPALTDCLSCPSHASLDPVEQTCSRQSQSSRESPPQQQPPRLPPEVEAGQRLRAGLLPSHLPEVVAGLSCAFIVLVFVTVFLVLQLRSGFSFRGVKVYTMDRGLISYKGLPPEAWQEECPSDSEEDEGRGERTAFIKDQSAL
- method.description: furin cleavage Z-score vs untreated control; higher = more cleavage, active = 3.5 or more, inactive = 1 or less, 8 variable residues between constant flanks
- experimental.context: 15 min
The list shows a part of the results. No count for the full screen is at hand.
Each entry falls into one class according to its furin cleavage Z-score; the ranges are class A: < 0.2; class B: ≥ 0.2 and < 8; class C: ≥ 8

Solved entries (count: 5):
CAREKRRQRNAGNASASA [FS-2135]    class B
CAVCGAPPCVAGNASASA [HC442]    class B
CAKKIRGKRFAGNASASA [FS-672]    class C
CAIDILAGYGAGNASASA [HC1085]    class A
CADLSRPSRSAGNASASA [FS-757]    class B

API: the following record is the query input.
Which class holds CAPKRRQKRDAGNASASA [FS-1048] ? class C
